List of IC50 values.
System: HaCaT cells
Test: MTT cytotoxicity assay
Type: cell-based, human
Conditions: Homo sapiens, HaCaT cell viability, 6 h
Procedure: Immortalized HaCaT cells from the original depositor (DKFZ, Heidelberg) were purchased from CLS-Cell Lines Service (code 300493) and were of […] skin type (phototype). In all experiments, the HaCaT cells were cultured at 37 °C in a humidified 5% CO2 atmosphere in high-glucose Dulbecco’s Modified Eagle Medium (DMEM-HG), which was supplemented with 10% fetal bovine serum, and were used at the 5th–6th passage. […]
experimental readout: IC50 (µM)

> print(dat)
                                   molecule  result.units  value.qualifier  value.measured
1  CCCc1cc(O)c2c(c1)OC(C)(C)[C@@H]1CCC(C)=C[C@@H]21 [THCV, Δ^9-tetrahydrocannabivarin]            µM                =            14.3
2  CCCCCc1cc(O)c2c(c1)OC(C)(CCC=C(C)C)C=C2 (stereo not shown) [CBC, cannabichromene]            µM                =            15.3
3  CCCCCc1cc(O)c(C/C=C(\C)CCC=C(C)C)c(O)c1 [CBG, cannabigerol]            µM                =            13.5
4  CCCCCc1cc(O)c(C/C=C(\C)CCC=C(C)C)c(O)c1C(=O)O [CBGA, cannabigerolic acid]            µM                >              25

All values here come from paper PMC9145865.
